Entries and their melting point

So what's the measured melting point for this one? "C=CCN(CC=C)c1nc(NC(=O)C=C)n2oc(=O)nc2n1"
157 to 161 °C

Same lookup for Nc1nc(NCC(c2ccccc2)c2ccc(F)cc2)c2ncn(C3OC(CO)C(O)C3O)c2n1 (stereo unspecified) , please.
127 to 130 °C

Same lookup for "Cc1[nH]cnc1CCC(=O)N(C)C" , please.
62 to 64 °C

Same lookup for "Cc1c(O)cccc1NC(=O)CC12CC3CC(CC(C3)C1)C2" , please.
211 °C

Same lookup for "CC(=O)Nc1nc(C)c(S(=O)(=O)N(CCO)CCO)s1" , please.
204 °C

Same lookup for "CCCNC(=S)n1nc(Oc2ncc(C(F)(F)F)cc2Cl)cc1C" , please.
51 to 53 °C
